Where do the numbers come from? From patent KR20220054080A.

measured_target: T1, SARS-CoV-2 RBD-mFc (SARS-CoV-2, UniProt P0DTC2 319-541)
T1 construct: range 319-541
assay_info: Octet QKe BLI, 1:1 global fit
Each entry below carries its reported kon.

[
  {
    "binder": "SA3902 (antibody, V domains shown) VH: QVQLVQSGAEVRQPGASVKVSCKTSGYAFSYYHIHWVRQAPGQGLEWMGLINPGSGGTNYAQKFQGRVTLTRDTSTSTVYMDLTGLRSEDTAVYYCAGSEQPHYYANGAYRVWGQGTLVTVSS VL: DIQMTQSPSTLSASVGDRVTITCRASQSISSYLNWYQQKPGKAPKLLIYEVSTLESGVPSRFSGSRSGTEFTLTISSLQPDDFATYYCQQYDTFGGGTKVEIK",
    "kon / M⁻¹ s⁻¹": 247000
  },
  {
    "binder": "SA3779 (antibody, V domains shown) VH: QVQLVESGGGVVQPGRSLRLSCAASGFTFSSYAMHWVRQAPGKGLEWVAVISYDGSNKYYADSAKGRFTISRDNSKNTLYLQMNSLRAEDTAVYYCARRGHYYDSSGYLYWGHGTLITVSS VL: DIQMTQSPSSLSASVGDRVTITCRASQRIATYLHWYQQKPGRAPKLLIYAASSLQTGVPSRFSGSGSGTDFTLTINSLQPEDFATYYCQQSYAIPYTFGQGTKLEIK",
    "kon / M⁻¹ s⁻¹": 213000
  },
  {
    "binder": "SA3755 (antibody, V domains shown) VH: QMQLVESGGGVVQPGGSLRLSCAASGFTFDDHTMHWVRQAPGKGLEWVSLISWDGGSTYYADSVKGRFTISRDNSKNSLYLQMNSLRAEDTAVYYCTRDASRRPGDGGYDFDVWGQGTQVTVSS VL: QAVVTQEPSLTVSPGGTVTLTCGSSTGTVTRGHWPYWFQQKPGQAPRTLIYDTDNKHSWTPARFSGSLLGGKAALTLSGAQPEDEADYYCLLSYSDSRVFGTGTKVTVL",
    "kon / M⁻¹ s⁻¹": 399000
  },
  {
    "binder": "SA4053 (antibody, V domains shown) VH: EVQLVQSGGGLVQPGGSLRLSCADSGFTFSSYWMSWVRQVPGKGLEWVANIKQDGSEKYYVDSVKGRFTISRDNAKNSLYLQMNSLRAEDTAVYYCARDVGRGYCSSTSCYRFGGREDFFDYWGQGTLVTVSS VL: QLVLTQPPSVSAAPGQRVTISCSGSFSNVGNNFVSWYRHLPGTAPELLIYDNNQRPSGIPDRFSASKSGTSATLAITGLHTGDEADYYCGTWDTSLSGVVFGGGTKLTVL",
    "kon / M⁻¹ s⁻¹": 316000
  }
]
